Tested on: U87 cells
method.description: MTS cytotoxicity assay, U87 cells
Format: cell-based
condition.details: U87, 0,01 uM, 72 h
property.measured: mean absorbance at 490 nm (MTS)

input: Given the compound CCCCc1nnc(-c2ccc(NC(=O)Nc3ccccc3C(F)(F)F)cc2)o1 , what is its reported mean absorbance at 490 nm (MTS)?
output: 1,350

Continuing:
input: Which mean absorbance at 490 nm (MTS) is listed for CCCCn1nnc(-c2ccc(NC(=O)Nc3ccccc3C(F)(F)F)cc2)n1 ?
output: 1,944

input: Sample CCCCc1cn(-c2ccc(NC(=O)Nc3ccccc3C(F)(F)F)cc2)nn1 — what was its mean absorbance at 490 nm (MTS)?
output: 1,598

input: Value lookup for mean absorbance at 490 nm (MTS); key = CCCCc1cn(-c2ccc(NC(=O)Nc3ccccc3C)cc2)nn1 [Compound 1, reference compound]
output: 2,027

input: Name the reported mean absorbance at 490 nm (MTS) value associated with the compound CC(C)CCc1cn(-c2ccc(NC(=O)Nc3cccc4cnccc34)cn2)nn1
output: 1,863

input: # mean absorbance at 490 nm (MTS) lookup, item CCCCc1nnc(-c2ccc(NC(=O)Nc3ccccc3C(F)(F)F)cc2)[nH]1
output: 1,906

input: mean absorbance at 490 nm (MTS) lookup needed for CCCCc1nnc(-c2ccc(NC(=O)Nc3ccccc3C(F)(F)F)cc2)s1 , thanks.
output: 2,267

====

method.description: Human liver microsomal metabolic stability
Type: in vitro ADME
condition.details: 37 °C, 60 min
Description: Preliminary in vitro ADME analysis was performed to early evaluate the pharmacokinetic (PK) profile of our compounds (Figure 8). Aqueous solubility was calculated by LC-MS-MS analysis. […] The mixture was filtered, and the quantity of solubilized compound was determined. Passive permeability was determined using parallel artificial membrane permeability assay (PAMPA). […] UV detection was monitored at 280 nm. […] The percentage of not metabolized compound was calculated by comparison with reference solutions
# HLM Stability ± SD (Human Liver Microsomal Metabolic Stability) per entry
Unit % implied. Number only.

input: So what's the measured HLM Stability ± SD (Human Liver Microsomal Metabolic Stability) for this one? CC(C)CCc1cn(-c2ccc(NC(=O)Nc3cccc4cnccc34)cn2)nn1
output: 91.31

input: Reported HLM Stability ± SD (Human Liver Microsomal Metabolic Stability), compound CCCCn1nnc(-c2ccc(NC(=O)Nc3ccccc3C(F)(F)F)cc2)n1 : ____
output: 90.32

====

Tested on: U251 cells
method.description: MTS cytotoxicity assay, U251 cells
Assay type: cell-based
condition.details: U251, 0,1 uM, 72 h
property.measured: mean absorbance at 490 nm (MTS)

Solved entries (count: 6):
input: Value lookup for mean absorbance at 490 nm (MTS); key = CCCCn1nnc(-c2ccc(NC(=O)Nc3ccccc3C(F)(F)F)cc2)n1
output: 1,763

input: Returns the measured mean absorbance at 490 nm (MTS) for the input molecule. Input: CC(C)CCc1cn(-c2ccc(NC(=O)Nc3cccc4cnccc34)cn2)nn1
output: 2,003

input: Suppose we examine the molecule CCCCc1cn(-c2ccc(NC(=O)Nc3ccccc3C(F)(F)F)cc2)nn1 ; what mean absorbance at 490 nm (MTS) value has been reported?
output: 2,070

input: What value of measured mean absorbance at 490 nm (MTS) is listed for CCCCc1nnc(-c2ccc(NC(=O)Nc3ccccc3C(F)(F)F)cc2)[nH]1 ?
output: 1,513

input: Which mean absorbance at 490 nm (MTS) value is on record for CCCCc1cn(-c2ccc(NC(=O)Nc3ccccc3C)cc2)nn1 [Compound 1, reference compound] ?
output: 1,998

input: Dear colleague, I am looking for the recorded mean absorbance at 490 nm (MTS) of the following molecule: CCCCc1nnc(-c2ccc(NC(=O)Nc3ccccc3C(F)(F)F)cc2)s1
output: 2,282

Next:
input: Name the reported mean absorbance at 490 nm (MTS) value associated with the molecule CCCCc1nnc(-c2ccc(NC(=O)Nc3ccccc3C(F)(F)F)cc2)o1
output: 1,025

====

HLM Stability ± SD (Human Liver Microsomal Metabolic Stability): recorded values
method.description: Human liver microsomal metabolic stability
Type: in vitro ADME
condition.details: 37 °C, 60 min
Respond numerically; units are % and should not be typed.

# annotated cases, reported HLM Stability ± SD (Human Liver Microsomal Metabolic Stability) shown
input: # query: HLM Stability ± SD (Human Liver Microsomal Metabolic Stability) of entry CCCCc1cn(-c2ccc(NC(=O)Nc3ccccc3C)cc2)nn1 [Compound 1, reference compound]
output: 99.0

input: Consider the compound shown here: CCCCc1cn(-c2ccc(NC(=O)Nc3ccccc3C(F)(F)F)cc2)nn1 [BA103] What is its recorded HLM Stability ± SD (Human Liver Microsomal Metabolic Stability)?
output: 97.0

input: What value of measured HLM Stability ± SD (Human Liver Microsomal Metabolic Stability) is listed for CCCCc1nnc(-c2ccc(NC(=O)Nc3ccccc3C(F)(F)F)cc2)[nH]1 [Compound 4] ?
output: 97.9

We next turn to a different compound, shown below.
input: Value lookup for HLM Stability ± SD (Human Liver Microsomal Metabolic Stability); key = CCCCc1nnc(-c2ccc(NC(=O)Nc3ccccc3C(F)(F)F)cc2)o1 [Compound 3]
output: 88.9
